test system: Bacillus paralicheniformis NNS4-3; assay: Antibiotic susceptibility test of NNS4-3 (disc diffusion); type: cell-based; conditions: disc diffusion on MH agar, 30 °C, 24 h, triplicate; result in words (Figure S1)
observed.property: antibiotic susceptibility of the NNS4-3 isolate

stdin: State the recorded antibiotic susceptibility of the NNS4-3 isolate for this entry: O=C(O)c1cn(C2CC2)c2cc(N3CCNCC3)c(F)cc2c1=O
stdout: high potency inhibition

stdin: Now consider C[C@@H](O)[C@H]1C(=O)N2C(C(=O)O)=C(SCCN=CN)C[C@H]12 .
stdout: high potency inhibition
